For each of the compounds below, state its inhibition.
# measured target: Acetylcholinesterase (Electrophorus electricus) (UniProt O42275)
# Sequence (O42275 24-633 limits assumed): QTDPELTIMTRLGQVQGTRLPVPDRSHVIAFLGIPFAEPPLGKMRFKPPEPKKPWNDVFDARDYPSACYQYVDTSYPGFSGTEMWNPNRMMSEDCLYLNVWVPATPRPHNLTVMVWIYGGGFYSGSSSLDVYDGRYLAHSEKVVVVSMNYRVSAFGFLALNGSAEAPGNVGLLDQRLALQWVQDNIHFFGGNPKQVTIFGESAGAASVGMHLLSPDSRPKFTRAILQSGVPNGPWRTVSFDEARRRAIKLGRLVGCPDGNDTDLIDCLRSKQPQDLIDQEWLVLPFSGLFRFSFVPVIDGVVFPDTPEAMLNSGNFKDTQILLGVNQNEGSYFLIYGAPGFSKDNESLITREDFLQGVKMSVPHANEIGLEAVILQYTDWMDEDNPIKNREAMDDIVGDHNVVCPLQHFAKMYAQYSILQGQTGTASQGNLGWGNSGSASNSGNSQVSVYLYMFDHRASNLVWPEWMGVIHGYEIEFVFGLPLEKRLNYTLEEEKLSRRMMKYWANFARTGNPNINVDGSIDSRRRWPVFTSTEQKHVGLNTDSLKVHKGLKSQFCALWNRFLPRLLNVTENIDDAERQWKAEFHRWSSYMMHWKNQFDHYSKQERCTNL
# conditions used: at 2 mg/mL
# Description: Inhibition of electric eel AChE at 2 mg/ml by Ellman's method
Express it in %; write the number only.

Ask: Entry C[C@@H]1C(=O)O[C@H]2[C@H](O)[C@@]34[C@H]5C[C@@H](C(C)(C)C)[C@]36[C@@H](OC(=O)[C@@H]6O)O[C@@]4(C(=O)O5)[C@@]12O has what inhibition?
Reply: -7.35

Ask: Next record, please: C[C@@H]1CC[C@]2(NC1)O[C@H]1C[C@H]3[C@@H]4CC=C5C[C@@H](O)CC[C@]5(C)[C@H]4CC[C@]3(C)[C@H]1[C@@H]2C
Reply: 1.63

Ask: Next record, please: C[N+]1(C)CCC[C@H]1C(=O)[O-]
Reply: -9.74

Ask: Next record, please: O=C1C[C@@H](c2ccc(O)c(O)c2)Oc2cc(O)cc(O)c21
Reply: 20.2

Ask: Next record, please: CC(=O)O[C@H]1C(=O)[C@@]2(C)[C@H]([C@H](OC(=O)c3ccccc3)[C@]3(O)C[C@H](OC(=O)[C@H](O)[C@@H](NC(=O)c4ccccc4)c4ccccc4)C(C)=C1C3(C)C)[C@]1(OC(C)=O)CO[C@@H]1C[C@@H]2O
Reply: 12.5

Ask: Next record, please: C=C1[C@@H](C)[C@H]2[C@H](Cc3ccccc3)NC(=O)[C@]23OC(=O)/C=C/[C@H](O)CCC[C@@H](C)C/C=C/[C@H]3[C@@H]1O
Reply: -2.03

Ask: Next record, please: COc1ccc(-c2coc3cc(O)ccc3c2=O)cc1
Reply: 1.62

Ask: Next record, please: CC(C)(S)[C@H](N)C(=O)O
Reply: 11.7

Ask: Next record, please: CC[C@H]1CC[C@@]2(C)CN(CC)[C@@H]3[C@@H]4[C@@H](O)[C@H]2[C@@]13[C@@H]1C[C@@H]2CC[C@@]4(O)[C@H]1C(=O)O2
Reply: 22.5

Ask: Next record, please: COc1ccc2[nH]cc(CCNC(C)=O)c2c1
Reply: 15.5

Ask: Next record, please: COC(=O)[C@H]1[C@H]2C[C@@H]3c4[nH]c5cc(OC)ccc5c4CCN3C[C@H]2C[C@@H](OC(=O)c2cc(OC)c(OC)c(OC)c2)[C@@H]1OC
Reply: 5.06

Ask: Next record, please: Oc1cc(O)c2c(c1)O[C@H](c1ccc(O)c(O)c1)[C@@H](O)C2
Reply: 7.03

Ask: Next record, please: O=c1c(-c2ccc(O)cc2)coc2cc(O)cc(O)c12
Reply: 7.3

Ask: Next record, please: C=C1CC[C@@H]2[C@](C)(CO)[C@H](O)CC[C@@]2(C)[C@@H]1C/C=C1/C(=O)OC[C@H]1O
Reply: 25.1

Ask: Next record, please: C=C1[C@@H](C)[C@H]2[C@H](Cc3ccccc3)NC(=O)[C@]23[C@H](OC(C)=O)/C=C/[C@@](C)(O)C(=O)[C@@H](C)C/C=C/[C@H]3[C@@H]1O
Reply: -2.15

Ask: Next record, please: Cn1c(-c2ccc3c(c2)OCO3)cc(=O)c2ccccc21
Reply: 31.1

Ask: Next record, please: C[C@@H]1O[C@@H](OC[C@H]2O[C@@H](Oc3cc(O)c4c(c3)O[C@H](c3ccc(O)c(O)c3)CC4=O)[C@H](O)[C@@H](O)[C@@H]2O)[C@H](O)[C@H](O)[C@H]1O
Reply: 21.5

Ask: Next record, please: CCCC(=O)O[C@@H]1[C@@H](C)[C@@]2(O)[C@@H](C=C(CO)C[C@]3(O)C(=O)C(C)=C[C@@H]23)[C@@H]2C(C)(C)[C@]12OC(=O)CCC (stereo in doubt; form 2)
Reply: 19.5

Ask: Next record, please: N#C[C@H](O[C@@H]1O[C@H](CO[C@@H]2O[C@H](CO)[C@@H](O)[C@H](O)[C@H]2O)[C@@H](O)[C@H](O)[C@H]1O)c1ccccc1
Reply: 0.78

Ask: Next record, please: O=C1c2ccc(O)cc2O[C@@H](c2cc(O)c(O)c(O)c2)[C@@H]1O
Reply: 4.04

Ask: Next record, please: O=c1c(O)c(-c2ccccc2O)oc2cc(O)cc(O)c12
Reply: 23

Ask: Next record, please: CC(C)CCNC(=O)[C@H](CC(C)C)NC(=O)[C@H]1O[C@@H]1C(=O)O
Reply: -1.94

Ask: Next record, please: CC1=C(/C=C/C(C)=C\C=C\C(C)=C\C(=O)O)C(C)(C)CCC1
Reply: 14.3

Ask: Next record, please: Oc1ccc(/C=C/c2cc(O)cc(O)c2)cc1
Reply: 15.1

Ask: Next record, please: COc1cc(C(=O)OC2CC3CCC(C2)N3C)ccc1O (stereo not given)
Reply: 31.5
